Numbers sourced from paper PMC9104438.

biological target: hTGase 2 (Homo sapiens, UniProt P21980); experiment: FA-based assay, characterization of irreversible inhibitors; conditions: IC50 hTGase 2, preincubation 30 min; DMC 30 µM, R-I-Cad 0.74 µM, hTGase 2 5 µg/mL; mean (SEM)
Sequence (P21980 whole entry): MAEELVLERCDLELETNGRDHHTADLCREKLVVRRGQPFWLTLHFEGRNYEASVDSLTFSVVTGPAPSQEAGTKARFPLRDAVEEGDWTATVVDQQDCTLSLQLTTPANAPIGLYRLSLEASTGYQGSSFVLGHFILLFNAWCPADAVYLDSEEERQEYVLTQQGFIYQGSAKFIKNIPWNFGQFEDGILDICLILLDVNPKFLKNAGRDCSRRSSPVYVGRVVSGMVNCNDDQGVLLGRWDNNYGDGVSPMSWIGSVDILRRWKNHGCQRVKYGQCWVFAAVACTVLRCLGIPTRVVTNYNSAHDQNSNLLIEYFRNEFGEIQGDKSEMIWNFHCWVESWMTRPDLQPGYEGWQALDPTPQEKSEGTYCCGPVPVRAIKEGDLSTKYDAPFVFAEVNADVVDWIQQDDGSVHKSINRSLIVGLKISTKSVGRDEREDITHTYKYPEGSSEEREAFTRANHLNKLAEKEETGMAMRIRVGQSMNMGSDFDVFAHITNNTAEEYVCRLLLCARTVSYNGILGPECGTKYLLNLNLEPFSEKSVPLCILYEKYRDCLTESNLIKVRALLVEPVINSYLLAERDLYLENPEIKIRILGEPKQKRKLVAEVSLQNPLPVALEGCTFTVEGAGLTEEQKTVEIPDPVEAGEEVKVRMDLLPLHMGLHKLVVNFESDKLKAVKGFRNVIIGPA
value-type: IC50 (nM)

# query: IC50 of entry "C=CC(=O)NCCCC[C@H](NC(=O)Cc1ccccc1)C(=O)N1CCN(c2ccc([N+](=O)[O-])nc2)CC1"
42

# query: IC50 of entry "C=CC(=O)NCCCC[C@H](NC(=O)Cc1ccccc1)C(=O)N1CCN(c2cccc(-c3cn(CCOCCOCCOCCNC(=O)CCCC[C@@H]4SC[C@@H]5NC(=O)N[C@@H]54)nn3)n2)CC1"
68

I: C=CC(=O)NCCCC[C@H](NC(=O)Cc1ccccc1)C(=O)N1CCN(c2cccc(C)n2)CC1
II: C#Cc1cccc(N2CCN(C(=O)[C@H](CCCCNC(=O)C=C)NC(=O)Cc3ccccc3)CC2)n1
Parameter metric = IC50. Return the lower-valued option from I and II . Answer by stating the label of the chosen item.
I

====

Target: hTGase 1 (Homo sapiens)
Sequence (P22735 1-817): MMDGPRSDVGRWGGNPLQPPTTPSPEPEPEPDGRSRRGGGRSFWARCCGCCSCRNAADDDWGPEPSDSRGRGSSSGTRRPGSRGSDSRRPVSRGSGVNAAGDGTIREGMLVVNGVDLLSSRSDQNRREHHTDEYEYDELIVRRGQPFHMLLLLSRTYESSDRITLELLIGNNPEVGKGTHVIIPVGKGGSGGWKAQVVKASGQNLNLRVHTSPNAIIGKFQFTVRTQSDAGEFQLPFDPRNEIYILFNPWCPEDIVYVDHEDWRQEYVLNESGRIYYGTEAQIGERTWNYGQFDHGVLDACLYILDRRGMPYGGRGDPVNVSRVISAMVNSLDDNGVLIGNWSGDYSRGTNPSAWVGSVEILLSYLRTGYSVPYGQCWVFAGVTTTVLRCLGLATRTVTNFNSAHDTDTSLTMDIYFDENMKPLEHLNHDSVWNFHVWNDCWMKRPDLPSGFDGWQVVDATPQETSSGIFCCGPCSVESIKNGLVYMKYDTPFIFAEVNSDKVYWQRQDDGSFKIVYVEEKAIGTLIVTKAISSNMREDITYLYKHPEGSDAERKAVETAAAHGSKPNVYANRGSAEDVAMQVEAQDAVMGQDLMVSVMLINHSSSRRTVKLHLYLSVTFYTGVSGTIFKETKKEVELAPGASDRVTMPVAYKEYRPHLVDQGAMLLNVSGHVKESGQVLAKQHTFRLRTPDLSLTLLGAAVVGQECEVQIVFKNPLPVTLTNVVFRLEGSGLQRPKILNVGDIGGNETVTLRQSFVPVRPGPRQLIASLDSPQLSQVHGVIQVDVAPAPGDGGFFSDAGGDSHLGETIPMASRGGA
Assay: FA-based assay, characterization of irreversible inhibitors
value-type: IC50 (µM)

# query: IC50 of entry C#Cc1cccc(N2CCN(C(=O)[C@H](CCCCNC(=O)C=C)NC(=O)Cc3ccccc3)CC2)n1 [Compound 3]
10.2

# query: IC50 of entry C=CC(=O)NCCCC[C@H](NC(=O)Cc1ccccc1)C(=O)N1CCN(c2cccc(-c3cn(CCOCCOCCOCCNC(=O)CCCC[C@@H]4SC[C@@H]5NC(=O)N[C@@H]54)nn3)n2)CC1 [Compound 4]
4.56

# query: IC50 of entry C=CC(=O)NCCCC[C@H](NC(=O)Cc1ccccc1)C(=O)N1CCN(c2ccc([N+](=O)[O-])nc2)CC1 [Compound 2]
8.99

====

molecular target: hTGase 6 (Homo sapiens); assay: FA-based assay, characterization of irreversible inhibitors
Sequence (O95932 whole entry): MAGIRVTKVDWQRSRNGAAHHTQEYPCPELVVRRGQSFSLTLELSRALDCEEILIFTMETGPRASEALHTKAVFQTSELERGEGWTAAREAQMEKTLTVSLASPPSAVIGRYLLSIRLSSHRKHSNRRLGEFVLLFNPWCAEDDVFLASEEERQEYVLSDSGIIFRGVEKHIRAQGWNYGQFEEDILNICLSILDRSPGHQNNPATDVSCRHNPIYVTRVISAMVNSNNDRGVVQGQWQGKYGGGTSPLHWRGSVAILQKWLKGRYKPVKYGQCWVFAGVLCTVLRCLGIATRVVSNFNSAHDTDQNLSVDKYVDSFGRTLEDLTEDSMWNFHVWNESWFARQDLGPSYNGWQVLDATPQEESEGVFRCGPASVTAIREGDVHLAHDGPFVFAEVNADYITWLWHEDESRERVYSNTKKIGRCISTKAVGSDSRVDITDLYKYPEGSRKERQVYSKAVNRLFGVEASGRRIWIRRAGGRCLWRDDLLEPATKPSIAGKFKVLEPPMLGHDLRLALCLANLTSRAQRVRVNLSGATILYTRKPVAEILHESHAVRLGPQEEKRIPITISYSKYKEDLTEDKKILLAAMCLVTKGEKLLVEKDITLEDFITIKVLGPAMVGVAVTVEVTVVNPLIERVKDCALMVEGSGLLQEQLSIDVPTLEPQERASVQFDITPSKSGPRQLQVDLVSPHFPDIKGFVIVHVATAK
pIC50: −log10 of the molar value.
value-type: pIC50

# query: pIC50 of entry "C=CC(=O)NCCCC[C@H](NC(=O)Cc1ccccc1)C(=O)N1CCN(c2cccc(-c3cn(CCOCCOCCOCCNC(=O)CCCC[C@@H]4SC[C@@H]5NC(=O)N[C@@H]54)nn3)n2)CC1"
4.66

P: C=CC(=O)NCCCC[C@H](NC(=O)Cc1ccccc1)C(=O)N1CCN(c2ccc([N+](=O)[O-])nc2)CC1
Q: C#Cc1cccc(N2CCN(C(=O)[C@H](CCCCNC(=O)C=C)NC(=O)Cc3ccccc3)CC2)n1
// which entry has the larger pIC50 value, P or Q ? Answer by stating the label of the chosen item.
P
(P: 4.71, Q: 4.42)

====

target: hTGase 2 (Homo sapiens, UniProt P21980); assay: FA-based assay, characterization of irreversible inhibitors; details: IC50 hTGase 2, preincubation 5 min; DMC 30 µM, R-I-Cad 0.81 µM, hTGase 2 2 µg/mL; mean (SEM)
Each record here notes measured pIC50.
For clarity, pIC50 is expressed as the negative log10 of concentration in mol/L.

Request body: readout pIC50, system hTGase 2 (Homo sapiens, UniProt P21980), query C#Cc1cccc(N2CCN(C(=O)[C@H](CCCCNC(=O)C=C)NC(=O)Cc3ccccc3)CC2)n1 [Compound 3] . Return the value.
6.36

# context switch: different molecule, same pIC50
Request body: readout pIC50, system hTGase 2 (Homo sapiens, UniProt P21980), query C=CC(=O)NCCCC[C@H](NC(=O)Cc1ccccc1)C(=O)N1CCN(c2cccc(-c3cn(CCOCCOCCOCCNC(=O)CCCC[C@@H]4SC[C@@H]5NC(=O)N[C@@H]54)nn3)n2)CC1 [Compound 4] . Return the value.
6.60

====

biological target: hFXIIIa (Homo sapiens, UniProt P00488); experiment: FA-based assay, characterization of irreversible inhibitors
Sequence (P00488 39-732 limits assumed): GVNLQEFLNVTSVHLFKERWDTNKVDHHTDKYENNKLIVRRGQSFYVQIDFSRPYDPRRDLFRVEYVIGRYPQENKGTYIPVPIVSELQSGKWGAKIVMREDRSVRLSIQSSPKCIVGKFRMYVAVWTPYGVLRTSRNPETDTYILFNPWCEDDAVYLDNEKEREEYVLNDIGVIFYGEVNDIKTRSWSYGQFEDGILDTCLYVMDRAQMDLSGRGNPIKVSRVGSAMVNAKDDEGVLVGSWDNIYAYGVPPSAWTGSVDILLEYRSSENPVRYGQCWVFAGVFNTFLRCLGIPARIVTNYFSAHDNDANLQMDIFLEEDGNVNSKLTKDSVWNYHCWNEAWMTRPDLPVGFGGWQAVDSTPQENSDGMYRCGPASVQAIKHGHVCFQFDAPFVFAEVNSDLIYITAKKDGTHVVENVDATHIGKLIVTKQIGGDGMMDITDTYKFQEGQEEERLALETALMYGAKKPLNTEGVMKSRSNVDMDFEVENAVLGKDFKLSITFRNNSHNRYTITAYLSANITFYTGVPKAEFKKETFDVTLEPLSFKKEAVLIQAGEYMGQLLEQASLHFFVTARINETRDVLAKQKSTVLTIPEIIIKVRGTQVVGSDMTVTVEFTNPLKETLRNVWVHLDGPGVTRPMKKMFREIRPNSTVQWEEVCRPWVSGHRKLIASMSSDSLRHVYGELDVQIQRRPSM
value-type: IC50 (µM)

# query: IC50 of entry "C=CC(=O)NCCCC[C@H](NC(=O)Cc1ccccc1)C(=O)N1CCN(c2cccc(-c3cn(CCOCCOCCOCCNC(=O)CCCC[C@@H]4SC[C@@H]5NC(=O)N[C@@H]54)nn3)n2)CC1"
7.12

a: C=CC(=O)NCCCC[C@H](NC(=O)Cc1ccccc1)C(=O)N1CCN(c2ccc([N+](=O)[O-])nc2)CC1
b: C#Cc1cccc(N2CCN(C(=O)[C@H](CCCCNC(=O)C=C)NC(=O)Cc3ccccc3)CC2)n1
Parameter metric = IC50. Return the lower-valued option from a and b . Answer by stating the label of the chosen item.
a
(a: 17.6 µM, b: 26.2 µM)
